# Test system: NCI-H2228
List of GI50 values.

Incoming: Can you look up the measured GI50 of C=CC(=O)Nc1cc(Nc2ncc(Cl)c(Nc3ccccc3S(=O)(=O)C(C)C)n2)c(OC)cc1N1CCCN(C)CC1 for me?
Outgoing: < 3 nM

Incoming: Further, for C=CC(=O)Nc1cc(Nc2ncc(Cl)c(Nc3ccccc3S(=O)(=O)C(C)C)n2)c(OC)cc1N1CCN(C(C)C)CC1 ?
Outgoing: < 3 nM

---

Notes on GI50 obtained with BaF3.
Give the value, in units of nM, as a plain number.

>  <entrySmiles>
C=CC(=O)Nc1cc(Nc2ncc(Cl)c(Nc3ccccc3S(=O)(=O)C(C)C)n2)c(OC)cc1N1CCCCC1

>  <recordedEndpoint>
GI50

>  <reportedResult>
340

$$$$
>  <entrySmiles>
C=CC(=O)Nc1cc(Nc2ncc(Cl)c(Nc3ccccc3P(C)(C)=O)n2)c(OC)cc1N1CCC(N2CCCCC2)CC1

>  <recordedEndpoint>
GI50

>  <reportedResult>
5300

$$$$
>  <entrySmiles>
C=CC(=O)Nc1cc(Nc2ncc(Cl)c(Nc3ccccc3C(=O)NC)n2)c(OC)cc1N1CCN(C(C)C)CC1

>  <recordedEndpoint>
GI50

>  <reportedResult>
1100

$$$$

Incoming: Can you look up the measured GI50 of C=CC(=O)Nc1cc(Nc2ncc(C)c(Nc3ccccc3S(=O)(=O)C(C)C)n2)c(OC)cc1N1CCC(N2CCN(C)CC2)CC1 for me?
Outgoing: 1600

Incoming: Further, for C=CC(=O)Nc1cc(Nc2ncc(Cl)c(Nc3ccc(F)c(Cl)c3)n2)c(OC)cc1N1CCN(C)CC1 ?
Outgoing: 6800

Incoming: Further, for C=CC(=O)Nc1cc(Nc2ncc(Cl)c(Nc3ccccc3S(=O)(=O)C(C)C)n2)c(OC)cc1N1CCN(C)CC1 ?
Outgoing: 1600

Incoming: Further, for C=CC(=O)Nc1cc(Nc2ncc(Cl)c(Nc3ccccc3C(=O)NC)n2)c(OC)cc1N1CCC(N2CCOCC2)CC1 ?
Outgoing: 5400

Incoming: Further, for C=CC(=O)Nc1cc(Nc2ncc(Cl)c(Nc3ccccc3S(=O)(=O)N(C)C)n2)c(OC)cc1N1CCN(C)CC1 ?
Outgoing: 1100

Incoming: Further, for C=CC(=O)Nc1cc(Nc2ncc(Cl)c(Nc3ccccc3C(=O)NC)n2)c(OC)cc1N1CCN(CC)CC1 ?
Outgoing: 2100

---

Notes on GI50 obtained with NCI-H2228.
Give the value, in units of nM, as a plain number.

Incoming: Can you look up the measured GI50 of C=CC(=O)Nc1cc(Nc2ncc(Cl)c(Nc3ccccc3S(=O)(=O)C(C)C)n2)c(OC)cc1N1CCN(CCOC)CC1 for me?
Outgoing: 5.9

Incoming: Further, for C=CC(=O)Nc1cc(Nc2ncc(Cl)c(Nc3ccc(F)c(Cl)c3)n2)c(OC)cc1N1CCN(C)CC1 ?
Outgoing: 78

Incoming: Further, for CCC(=O)Nc1cc(Nc2ncc(Cl)c(Nc3ccccc3S(=O)(=O)C(C)C)n2)c(OC)cc1N1CCC(N2CCN(C)CC2)CC1 ?
Outgoing: 280
